From: ChEMBL document CHEMBL2029271

Target: Cannabinoid receptor 1 (Homo sapiens, UniProt P21554)
Sequence (P21554 whole entry): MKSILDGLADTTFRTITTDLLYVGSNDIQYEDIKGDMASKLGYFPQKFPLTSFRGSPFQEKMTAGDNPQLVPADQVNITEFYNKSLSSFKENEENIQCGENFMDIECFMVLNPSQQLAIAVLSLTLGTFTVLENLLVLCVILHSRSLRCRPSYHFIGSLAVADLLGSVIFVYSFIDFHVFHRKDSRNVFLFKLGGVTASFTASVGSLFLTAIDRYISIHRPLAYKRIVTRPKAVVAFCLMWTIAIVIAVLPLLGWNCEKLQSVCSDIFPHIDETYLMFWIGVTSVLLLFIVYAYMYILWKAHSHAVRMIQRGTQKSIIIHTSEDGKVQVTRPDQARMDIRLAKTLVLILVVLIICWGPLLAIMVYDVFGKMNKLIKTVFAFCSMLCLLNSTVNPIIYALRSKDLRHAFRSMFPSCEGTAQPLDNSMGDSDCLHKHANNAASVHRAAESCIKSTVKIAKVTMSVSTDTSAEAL
Conditions: CHO-K1
Description: Antagonist activity at human CB1 receptor expressed in CHO-K1 cells co-expressing Galphaq16 assessed as inhibition of CP55940-induced intracellular calcium mobilization by fluorometry
Observation type: Ke (nM)
Report the figure in nM without appending any unit label.

Examples with their reported Ke follow.
| Structure as smiles | Observation type | Value units | Assay value |
| --- | --- | --- | --- |
| CCCNC(=O)N1CCC(NC(=O)c2nn(-c3ccc(Cl)cc3Cl)c(-c3ccc(Cl)cc3)c2C)CC1 | Ke | nM | 66.5 |
| CCOC(=O)N1CCC[C@H](NC(=O)c2nn(-c3ccc(Cl)cc3Cl)c(-c3ccc(Cl)cc3)c2C)C1 | Ke | nM | 75 |
| Cc1c(C(=O)N2CCC(NC(=O)NC(C)C)(c3ccccc3)CC2)nn(-c2ccc(Cl)cc2Cl)c1-c1ccc(Cl)cc1 | Ke | nM | 0.7 |
| Cc1c(C(=O)N2CCC(C(N)=O)(c3ccccc3)CC2)nn(-c2ccc(Cl)cc2Cl)c1-c1ccc(Cl)cc1 | Ke | nM | 0.4 |
| CC(=O)NC1(c2ccccc2)CCN(C(=O)c2nn(-c3ccc(Cl)cc3Cl)c(-c3ccc(Cl)cc3)c2C)CC1 | Ke | nM | 201 |
| Cc1c(C(=O)NC2CCNCC2)nn(-c2ccc(Cl)cc2Cl)c1-c1ccc(Cl)cc1 | Ke | nM | 5120 |
| Cc1c(C(=O)N2CCC(NC(=O)Nc3ccc(N(C)C)cc3)(c3ccccc3)CC2)nn(-c2ccc(Cl)cc2Cl)c1-c1ccc(Cl)cc1 | Ke | nM | 264 |
| Cc1c(C(=O)N2CCC(NC(=O)NC(C)(C)C)(c3ccccc3)CC2)nn(-c2ccc(Cl)cc2Cl)c1-c1ccc(Cl)cc1 | Ke | nM | 2.4 |
| Cc1c(C(=O)N2CCC(NC(=O)OC(C)(C)C)(c3ccccc3)CC2)nn(-c2ccc(Cl)cc2Cl)c1-c1ccc(Cl)cc1 | Ke | nM | 20.2 |
| Cc1c(C(=O)NC2CCN(C(=O)NC(C)(C)C)CC2)nn(-c2ccc(Cl)cc2Cl)c1-c1ccc(Cl)cc1 | Ke | nM | 78 |

Turning now to a further record.
query: # lookup: Ke of `Cc1c(C(=O)NC2CCN(C(N)=O)CC2)nn(-c2ccc(Cl)cc2Cl)c1-c1ccc(Cl)cc1`
result: 4100

* * *

# Lookup of reported log10(Ke) keyed by entry
Molecular target: Cannabinoid receptor 1 (Homo sapiens);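 also: antagonism measured as blockade of CP55940-evoked intracellular Ca2+ rise, read fluorometrically, in cells additionally carrying Galphaq16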
Conditions: CHO-K1
The common logarithm of Ke in nM is what is listed.

Examples with their reported log10(Ke) follow.
| Compound | log10(Ke) |
| --- | --- |
| Cc1c(C(=O)N[C@@H]2CCCN(C(=O)OC(C)(C)C)C2)nn(-c2ccc(Cl)cc2Cl)c1-c1ccc(Cl)cc1 | 1.72 |
| CCCCCCNC(=O)NC1(c2ccccc2)CCN(C(=O)c2nn(-c3ccc(Cl)cc3Cl)c(-c3ccc(Cl)cc3)c2C)CC1 | -0.30 |
| CCNC(=O)N1CCC(NC(=O)c2nn(-c3ccc(Cl)cc3Cl)c(-c3ccc(Cl)cc3)c2C)CC1 | 1.31 |

query: # lookup: log10(Ke) of `CCCNC(=O)N1CCC[C@@H](NC(=O)c2nn(-c3ccc(Cl)cc3Cl)c(-c3ccc(Cl)cc3)c2C)C1`
result: 1.43

query: # lookup: log10(Ke) of `Cc1c(C(=O)N2CCC(NS(C)(=O)=O)(c3ccccc3)CC2)nn(-c2ccc(Cl)cc2Cl)c1-c1ccc(Cl)cc1`
result: 0.54

query: # lookup: log10(Ke) of `CCCCNC(=O)N1CCC[C@@H](NC(=O)c2nn(-c3ccc(Cl)cc3Cl)c(-c3ccc(Cl)cc3)c2C)C1`
result: 2.07

query: # lookup: log10(Ke) of CCCNC(=O)NCC1CCC(CNC(=O)c2nn(-c3ccc(Cl)cc3Cl)c(-c3ccc(Cl)cc3)c2C)CC1 (configuration not stated)
result: 2.69

query: # lookup: log10(Ke) of `CC(=O)N1CCC[C@H](NC(=O)c2nn(-c3ccc(Cl)cc3Cl)c(-c3ccc(Cl)cc3)c2C)C1`
result: 1.93

query: # lookup: log10(Ke) of `CCOC(=O)N1CCC(NC(=O)c2nn(-c3ccc(Cl)cc3Cl)c(-c3ccc(Cl)cc3)c2C)CC1`
result: 0.48

query: # lookup: log10(Ke) of `Cc1c(C(=O)N[C@@H]2CCCN(S(C)(=O)=O)C2)nn(-c2ccc(Cl)cc2Cl)c1-c1ccc(Cl)cc1`
result: 0.85

query: # lookup: log10(Ke) of `Cc1c(C(=O)N[C@H]2CCCN(S(C)(=O)=O)C2)nn(-c2ccc(Cl)cc2Cl)c1-c1ccc(Cl)cc1`
result: 1.79

query: # lookup: log10(Ke) of `Cc1c(C(=O)N2CCC(NC(=O)Nc3ccc(F)cc3)(c3ccccc3)CC2)nn(-c2ccc(Cl)cc2Cl)c1-c1ccc(Cl)cc1`
result: 1.95

query: # lookup: log10(Ke) of `Cc1c(C(=O)N[C@@H]2CCCN(C(=O)NC(C)(C)C)C2)nn(-c2ccc(Cl)cc2Cl)c1-c1ccc(Cl)cc1`
result: 2.43

query: # lookup: log10(Ke) of `CCCNC(=O)N1CCC[C@H](NC(=O)c2nn(-c3ccc(Cl)cc3Cl)c(-c3ccc(Cl)cc3)c2C)C1`
result: 1.85

query: # lookup: log10(Ke) of `CC(=O)N1CCC[C@@H](NC(=O)c2nn(-c3ccc(Cl)cc3Cl)c(-c3ccc(Cl)cc3)c2C)C1`
result: 2.72

query: # lookup: log10(Ke) of `CCNC1(C(N)=O)CCN(C(=O)c2nn(-c3ccc(Cl)cc3Cl)c(-c3ccc(Cl)cc3)c2C)CC1`
result: 1.96

query: # lookup: log10(Ke) of `CCNC(=O)NC1(c2ccccc2)CCN(C(=O)c2nn(-c3ccc(Cl)cc3Cl)c(-c3ccc(Cl)cc3)c2C)CC1`
result: 1.03

query: # lookup: log10(Ke) of `Cc1c(C(=O)N[C@@H]2CCCN(C(=O)NC(C)C)C2)nn(-c2ccc(Cl)cc2Cl)c1-c1ccc(Cl)cc1`
result: 1.50

query: # lookup: log10(Ke) of `CC(=O)N1CCC(NC(=O)c2nn(-c3ccc(Cl)cc3Cl)c(-c3ccc(Cl)cc3)c2C)CC1`
result: 2.29

query: # lookup: log10(Ke) of `Cc1c(C(=O)N2CCC(N)(c3ccccc3)CC2)nn(-c2ccc(Cl)cc2Cl)c1-c1ccc(Cl)cc1`
result: 2.69

query: # lookup: log10(Ke) of `Cc1c(C(=O)N2CCC(NC(=O)NC3CCCCC3)(c3ccccc3)CC2)nn(-c2ccc(Cl)cc2Cl)c1-c1ccc(Cl)cc1`
result: 1.08

query: # lookup: log10(Ke) of `Cc1c(C(=O)NC2CCN(C(=O)NC(C)C)CC2)nn(-c2ccc(Cl)cc2Cl)c1-c1ccc(Cl)cc1`
result: 1.22

query: # lookup: log10(Ke) of `Cc1c(C(=O)N[C@@H]2CCCNC2)nn(-c2ccc(Cl)cc2Cl)c1-c1ccc(Cl)cc1`
result: 3.07

query: # lookup: log10(Ke) of `Cc1c(C(=O)NC2CCN(S(C)(=O)=O)CC2)nn(-c2ccc(Cl)cc2Cl)c1-c1ccc(Cl)cc1`
result: 2.43

* * *

Cannabinoid receptor 2 (Homo sapiens, UniProt P34972): reported pKi for various compounds.
Sequence (P34972 whole entry): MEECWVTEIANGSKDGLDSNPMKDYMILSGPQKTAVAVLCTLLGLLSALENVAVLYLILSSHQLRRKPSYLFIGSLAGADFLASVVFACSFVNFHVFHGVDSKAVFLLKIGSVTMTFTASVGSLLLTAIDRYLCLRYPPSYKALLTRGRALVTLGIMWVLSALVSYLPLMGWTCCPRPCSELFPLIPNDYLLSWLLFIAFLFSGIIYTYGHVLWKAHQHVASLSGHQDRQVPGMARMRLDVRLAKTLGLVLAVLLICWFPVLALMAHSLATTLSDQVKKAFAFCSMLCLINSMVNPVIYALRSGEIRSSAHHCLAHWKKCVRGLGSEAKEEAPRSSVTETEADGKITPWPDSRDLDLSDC
On this scale, pKi is minus log10 of a concentration expressed in M (mol/L).

| Structure as smiles | pKi |
| --- | --- |
| CCNC(=O)N1CCC(NC(=O)c2nn(-c3ccc(Cl)cc3Cl)c(-c3ccc(Cl)cc3)c2C)CC1 | 5.24 |
| Cc1c(C(=O)N[C@@H]2CCCN(S(C)(=O)=O)C2)nn(-c2ccc(Cl)cc2Cl)c1-c1ccc(Cl)cc1 | 5.90 |

query: Request - read-out pKi | tested on Cannabinoid receptor 2 (Homo sapiens, UniProt P34972) | compound `Cc1c(C(=O)NC2CCN(C(=O)OC(C)(C)C)CC2)nn(-c2ccc(Cl)cc2Cl)c1-c1ccc(Cl)cc1`
result: 5.60

query: Request - read-out pKi | tested on Cannabinoid receptor 2 (Homo sapiens, UniProt P34972) | compound `Cc1c(C(=O)N2CCC(NC(=O)Nc3ccc(F)cc3)(c3ccccc3)CC2)nn(-c2ccc(Cl)cc2Cl)c1-c1ccc(Cl)cc1`
result: 4.70

* * *

# Lookup of reported Ratio Ki keyed by entry
Species on record: Homo sapiens
Assay: Selectivity ratio of Ki for CB2 receptor to Ki for human CB1 receptor
Form: value (number only, do not type unit).

Examples with their reported Ratio Ki follow.
| Structure as smiles | Assay value |
| --- | --- |
| Cc1c(C(=O)NC2CCN(C(=O)OC(C)(C)C)CC2)nn(-c2ccc(Cl)cc2Cl)c1-c1ccc(Cl)cc1 | 878 |
| Cc1c(C(=O)N2CCC(NC(=O)NC(C)(C)C)(c3ccccc3)CC2)nn(-c2ccc(Cl)cc2Cl)c1-c1ccc(Cl)cc1 | 425 |

query: # lookup: Ratio Ki of `Cc1c(C(=O)N2CCC(NS(C)(=O)=O)(c3ccccc3)CC2)nn(-c2ccc(Cl)cc2Cl)c1-c1ccc(Cl)cc1`
result: 5.6

query: # lookup: Ratio Ki of `Cc1c(C(=O)N[C@H]2CCCN(S(C)(=O)=O)C2)nn(-c2ccc(Cl)cc2Cl)c1-c1ccc(Cl)cc1`
result: 140

query: # lookup: Ratio Ki of `CCCCCCNC(=O)NC1(c2ccccc2)CCN(C(=O)c2nn(-c3ccc(Cl)cc3Cl)c(-c3ccc(Cl)cc3)c2C)CC1`
result: 62

query: # lookup: Ratio Ki of `CC(=O)N1CCC(NC(=O)c2nn(-c3ccc(Cl)cc3Cl)c(-c3ccc(Cl)cc3)c2C)CC1`
result: 34.2

query: # lookup: Ratio Ki of `CCOC(=O)N1CCC[C@@H](NC(=O)c2nn(-c3ccc(Cl)cc3Cl)c(-c3ccc(Cl)cc3)c2C)C1`
result: 143

query: # lookup: Ratio Ki of `Cc1c(C(=O)N2CCC(C(N)=O)(c3ccccc3)CC2)nn(-c2ccc(Cl)cc2Cl)c1-c1ccc(Cl)cc1`
result: 1600
